System: MCF7
EXPERIMENT: Antiproliferative activity against human MCF7 cells after 72 hrs by CCK8 assay
Type: functional
REPORTED CONDITIONS: MCF7, 72 h
ENDPOINT NAME: GI50 (nM)
Express your answer in nM, writing the number without its unit.

Query GI50 for CCC1C(=O)N(C)c2cnc(Nc3ccc(S(=O)(=O)NCC(C)C)cc3)nc2N1c1ccn(C)n1 (racemic)
8350

Query GI50 for CCC1C(=O)N(C)c2cnc(Nc3ccc(S(N)(=O)=O)cc3)nc2N1c1ccn(C)n1 (racemic)
36600

Query GI50 for CCCCNS(=O)(=O)c1ccc(Nc2ncc3c(n2)N(c2ccn(C)n2)C(CC)C(=O)N3C)cc1 (racemic)
5780

Query GI50 for `CC[C@@H]1C(=O)N(C)c2cnc(Nc3ccc(S(=O)(=O)NCCCO)cc3)nc2N1C1CCCC1`
363

Query GI50 for `CC[C@@H]1C(=O)N(C)c2cnc(-n3ccc4cc(C(=O)NC)ccc43)nc2N1C1CCCC1`
1000

Query GI50 for `CC[C@@H]1C(=O)N(C)c2cnc(-n3ccc4cc(C(N)=O)ccc43)nc2N1C1CCCC1`
1830

Query GI50 for `CCCCNS(=O)(=O)c1ccc(Nc2ncc3c(n2)N(C2CCCC2)[C@H](CC)C(=O)N3C)cc1`
459

Query GI50 for `CC[C@@H]1C(=O)N(C)c2cnc(-n3ccc4ccccc43)nc2N1C1CCCC1`
17200

Query GI50 for `CC[C@@H]1C(=O)N(C)c2cnc(Nc3ccc(S(N)(=O)=O)cc3)nc2N1C1CCCC1`
394

Query GI50 for `CC[C@@H]1C(=O)N(C)c2cnc(Nc3ccc(S(=O)(=O)NC4CCCC4)cc3)nc2N1C1CCCC1`
688

Query GI50 for `CCNC(=O)c1ccc2c(ccn2-c2ncc3c(n2)N(C2CCCC2)[C@H](CC)C(=O)N3C)c1`
784

Query GI50 for CCC1C(=O)N(C)c2cnc(-n3ccc4cc(C(=O)NCC(C)C)ccc43)nc2N1c1ccn(C)n1 (racemic)
4810

Query GI50 for `CCCCNC(=O)c1ccc2c(ccn2-c2ncc3c(n2)N(C2CCCC2)[C@H](CC)C(=O)N3C)c1`
634

Query GI50 for CCC1C(=O)N(C)c2cnc(-n3ccc4cc(F)ccc43)nc2N1c1ccn(C)n1 (racemic)
24700

Query GI50 for `CC[C@@H]1C(=O)N(C)c2cnc(Nc3ccc(S(=O)(=O)Nc4ccccc4)cc3)nc2N1C1CCCC1`
5430

Query GI50 for `CC[C@@H]1C(=O)N(C)c2cnc(Nc3ccc(C(=O)NC4CCN(C)CC4)cc3OC)nc2N1C1CCCC1`
67

Query GI50 for `CCCNC(=O)c1ccc2c(ccn2-c2ncc3c(n2)N(C2CCCC2)[C@H](CC)C(=O)N3C)c1`
592

Query GI50 for CCNC(=O)c1ccc2c(ccn2-c2ncc3c(n2)N(c2ccn(C)n2)C(CC)C(=O)N3C)c1 (racemic)
13200

Query GI50 for `CC[C@@H]1C(=O)N(C)c2cnc(Nc3ccc(S(=O)(=O)NCCO)cc3)nc2N1C1CCCC1`
344

Query GI50 for CCC1C(=O)N(C)c2cnc(-n3ccc4cc(C(=O)NC(C)C)ccc43)nc2N1c1ccn(C)n1 (racemic)
8420

Query GI50 for CCC1C(=O)N(C)c2cnc(Nc3ccc(S(=O)(=O)NC)cc3)nc2N1c1ccn(C)n1 (racemic)
3750

Query GI50 for `CC[C@@H]1C(=O)N(C)c2cnc(Nc3ccc(S(=O)(=O)NCC(C)C)cc3)nc2N1C1CCCC1`
403

Query GI50 for CCCCNC(=O)c1ccc2c(ccn2-c2ncc3c(n2)N(c2ccn(C)n2)C(CC)C(=O)N3C)c1 (racemic)
8990

Query GI50 for `CC[C@@H]1C(=O)N(C)c2cnc(-n3ccc4cc(C(=O)NC(C)C)ccc43)nc2N1C1CCCC1`
1670

Query GI50 for CCCNS(=O)(=O)c1ccc(Nc2ncc3c(n2)N(c2ccn(C)n2)C(CC)C(=O)N3C)cc1 (racemic)
3000

Query GI50 for CCCNC(=O)c1ccc2c(ccn2-c2ncc3c(n2)N(c2ccn(C)n2)C(CC)C(=O)N3C)c1 (racemic)
6420

Query GI50 for `CCCNS(=O)(=O)c1ccc(Nc2ncc3c(n2)N(C2CCCC2)[C@H](CC)C(=O)N3C)cc1`
344

Query GI50 for `CC[C@@H]1C(=O)N(C)c2cnc(-n3ccc4cc(C(=O)NC5CCCC5)ccc43)nc2N1C1CCCC1`
795

Query GI50 for CCC1C(=O)N(C)c2cnc(Nc3ccc(S(=O)(=O)NCCCO)cc3)nc2N1c1ccn(C)n1 (racemic)
21600

Query GI50 for `CC[C@@H]1C(=O)N(C)c2cnc(-n3ccc4cc(C(=O)NCC(C)C)ccc43)nc2N1C1CCCC1`
953

Query GI50 for `CC[C@@H]1C(=O)N(C)c2cnc(Nc3ccc(S(=O)(=O)NC)cc3)nc2N1C1CCCC1`
151

Query GI50 for CCC1C(=O)N(C)c2cnc(-n3ccc4cc(C(=O)NC)ccc43)nc2N1c1ccn(C)n1 (racemic)
35400
